tested on: grass species; experiment: Greenhouse Preemergence Herbicide Test, grass species; type: in vivo; settings: two weeks after treatment
Catalogue of Minimum Dosage Providing at Least 50% Preemergence Control of Grass Species values
Property: Minimum Dosage Providing at Least 50% Preemergence Control of Grass Species (lb/A)

| Compound | Numeric value |
| --- | --- |
| N#CCN(C(=O)CCl)c1ccccc1Cl [Example 9, 2,2'-dichloro-N-(cyanomethyl)acetanilide] | 0.50 |
| CCc1ccccc1N(CC#N)C(=O)CCl | 0.50 |
| CCc1cccc(CC)c1N(CC#N)C(=O)CCl | 0.50 |
| CC(C)c1ccccc1N(CC#N)C(=O)CCl | 1.00 |
| N#CCN(C(=O)CCl)c1ccccc1Br | 1.00 |
| CC(C)c1cccc(C(C)C)c1N(CC#N)C(=O)CCl | 0.50 |
| Cc1cccc(N(CC#N)C(=O)CCl)c1 | 0.50 |
| COc1ccccc1N(CC#N)C(=O)CCl | 0.50 |
| Cc1cccc(C)c1N(CC#N)C(=O)CCl | 0.25 |
